Field: CC50 at 5 days. Provide a value for each of the molecules that follow.
# Experiment: in vitro
# Condition Description: human, uninfected MT-4 cells
I only need the number, in µM, no unit after it.

Quick check: CC50 at 5 days of `COC1=NO[C@@]2(CC[C@H](C)N3C[C@H]2n2cc(C(=O)NCc4ccc(F)cc4F)c(=O)c(OCOC(=O)OC(C)(C)COP(=O)(O)O)c2C3=O)C1` ?
35.4

Ok, now `COC1=NO[C@@]2(CC[C@H](C)N3C[C@H]2n2cc(C(=O)NCc4ccc(F)cc4F)c(=O)c(OCOC(=O)OC[C@H](C)OP(=O)(O)O)c2C3=O)C1`
14.8

Ok, now `CC[C@@H](COC(=O)OCOc1c2n(cc(C(=O)NCc3ccc(F)cc3F)c1=O)[C@@H]1CN(C2=O)[C@@H](C)CC[C@]12CC(OC)=NO2)OP(=O)(O)O`
14.4

###

# Experiment: Dog PO pharmacokinetic studies with P-gp inhibitor encequidar mesylate (Example E)
# Type: in vivo, beagle dog
# Condition Description: male, beagle, plasma; dog PO 4 mg/kg, encequidar mesylate 5 mg-eq/kg PO about 30 min before, dosed compound measured
Field: Cmax. Provide a value for each of the compounds that follow.
I only need the number, in µM, no unit after it.

Quick check: Cmax of COC1=NO[C@@]2(CC[C@H](C)N3C[C@H]2n2cc(C(=O)NCc4ccc(F)cc4F)c(=O)c(O)c2C3=O)C1 [Intermediate C] ?
62

Ok, now CC1=NO[C@@]2(CC[C@H](C)N3C[C@H]2n2cc(C(=O)NCc4ccc(F)cc4F)c(=O)c(O)c2C3=O)C1 [Intermediate B]
80.8

###

# Experiment: physchem
# Condition Description: FaSSIF, 23 °C, thermodynamic from solid
Observed Property: solubility thermodynamic at 24 h (µg/mL)
I only need the number, in µg/mL, no unit after it.

Quick check: solubility thermodynamic at 24 h of CC1=NO[C@@]2(CC[C@H](C)N3C[C@H]2n2cc(C(=O)NCc4ccc(F)cc4F)c(=O)c(OC(=O)OC[C@H](C)OP(=O)(O)O)c2C3=O)C1 [Compound 39] ?
2660

Ok, now CC1=NO[C@@]2(CC[C@H](C)N3C[C@H]2n2cc(C(=O)NCc4ccc(F)cc4F)c(=O)c(OCOC(=O)O[C@@H](C)COP(=O)(O)O)c2C3=O)C1 [Compound 19]
5060

Ok, now CC1=NO[C@@]2(CC[C@H](C)N3C[C@H]2n2cc(C(=O)NCc4ccc(F)cc4F)c(=O)c(OCOC(=O)OC(C)(C)COP(=O)(O)O)c2C3=O)C1 [Compound 62]
5040

###

# Experiment: physchem
# Condition Description: FaSSIF, 23 °C, thermodynamic from solid
Observed Property: solubility thermodynamic at 24 h (µg/mL)
I only need the number, in µg/mL, no unit after it.

Quick check: solubility thermodynamic at 24 h of CC[C@@H](COC(=O)OCOc1c2n(cc(C(=O)NCc3ccc(F)cc3F)c1=O)[C@@H]1CN(C2=O)[C@@H](C)CC[C@]12CC(OC)=NO2)OP(=O)(O)O [Compound 67] ?
5180

Ok, now CC[C@H](COC(=O)OCOc1c2n(cc(C(=O)NCc3ccc(F)cc3F)c1=O)[C@@H]1CN(C2=O)[C@@H](C)CC[C@]12CC(OC)=NO2)OP(=O)(O)O [Compound 65]
3880

Ok, now CC1=NO[C@@]2(CC[C@H](C)N3C[C@H]2n2cc(C(=O)NCc4ccc(F)cc4F)c(=O)c(OCOC(=O)OCC4(COP(=O)(O)O)CC4)c2C3=O)C1 [Compound 33]
5680

Where do the numbers come from? From patent US20250120989A1.
